Entries and their measured stacked score activity, 100/MIC, S follow.
test system: Staphylococcus aureus; experiment: MIC micro broth dilution assay; assay type: cell-based; set-up: key: stacked score = 100/MIC; details: S. aureus
outcome.measure: stacked score activity, 100/MIC, S

>>> measured_number("CCCCCCCN1C(=N)NC[C@@H]1CCCCN1C[C@H](C(C)CC)N(CCc2cccc(C)c2)C1=N (some centres unmarked) [Compound 32]")
33
>>> measured_number("N=C1NC[C@H](CCCCN2C[C@H](CC3CCCCC3)N(CCc3ccc(-c4ccccc4)cc3)C2=N)N1CCCCC1CCCCC1 [Compound 18]")
20
>>> measured_number("CCCC[C@H]1CN(CCCC[C@H]2CNC(=N)N2CCCCC2CCCCC2)C(=N)N1CCc1ccc(-c2ccccc2)cc1 [Compound 12]")
20
>>> measured_number("CCCC[C@H]1CN(CCCC[C@H]2CNC(=N)N2CCc2cccc(C(F)(F)F)c2)C(=N)N1CCc1ccc(-c2ccccc2)cc1 [Compound 3]")
33
>>> measured_number("CCC(C)CN1C(=N)N(CCCC[C@H]2CNC(=N)N2CC2CCC(C)CC2)C[C@@H]1C(C)CC (some centres unmarked) [Compound 51]")
4
>>> measured_number("CCC(C)CN1CCN(CCCC[C@H]2CNC(=N)N2CC2CCCCC2)C1=N (some centres unmarked) [Compound 39]")
0
>>> measured_number("CCC(C)CN1C(=N)N(CCCC[C@H]2CNC(=N)N2CC2CCCCC2)C[C@@H]1C(C)CC (some centres unmarked) [Compound 42]")
4
>>> measured_number("N=C1NC[C@H](CCCCN2C[C@H](CC3CCCCC3)N(CCCCC3CCCCC3)C2=N)N1CCc1cccc(C(F)(F)F)c1 [Compound 8]")
10
>>> measured_number("Cc1cccc(CCN2CCN(CCCC[C@H]3CNC(=N)N3CC3CCCCC3)C2=N)c1 [Compound 38]")
4
>>> measured_number("CCC[C@@H]1CN(CCCC[C@H]2CNC(=N)N2CC2CCC(C)CC2)C(=N)N1CC(C)CC (some centres unmarked) [Compound 54]")
4
>>> measured_number("CCCCCCCN1C(=N)N(CCCC[C@H]2CNC(=N)N2CCc2cccc(C(F)(F)F)c2)C[C@@H]1CC1CCCCC1 [Compound 7]")
33
>>> measured_number("CCC(C)[C@H]1CN(CCCC[C@H]2CNC(=N)N2CC2CCC(C)CC2)C(=N)N1 (some centres unmarked) [Compound 49]")
4
>>> measured_number("CCC[C@@H]1CN(CCCC[C@H]2CNC(=N)N2CC2CCCCC2)C(=N)N1 [Compound 43]")
0
>>> measured_number("CCCCCCCN1C(=N)NC[C@@H]1CCCCN1C[C@@H](CCC)NC1=N [Compound 34]")
4
